biological target: hNCX1 (Homo sapiens); assay: Confirmatory fluorescence assay for hNCX1 inhibition (forward mode, HEK293 cells, Charles River); type: cell-based; details: HEK293, forward mode, Table S2; read-out: hNCX1-HEK IC50
pIC50: −log10 of the molar value.
observed property: pIC50

[[record]]
molecule = "O=[N+]([O-])c1ccc(Oc2ccc3c(c2)CCC(c2ccccc2)O3)nc1 (stereo not shown)"
numeric_value = 5.73

[[record]]
molecule = "CCOc1ccc(Oc2ccc(OCc3cc(F)ccc3F)cc2)c(N)c1 [SEA0400, reference compound]"
numeric_value = 5.66

[[record]]
molecule = "O=C(CN1CCC(O)CC1)Nc1ccc(Oc2ccc3c(c2)CCC(c2ccccc2)O3)nc1 (stereo not shown)"
numeric_value = 6.20

[[record]]
molecule = "N=C(N)SCCc1ccc(OCc2ccc([N+](=O)[O-])cc2)cc1"
numeric_value = 5.44

